Just for reference, patent US11001590B2 is where these values come from.

# runDescription: log P by HPLC on reversed phase columns (Method L0; [a] acidic, [b] neutral range)
chromatographic logP values by entry
Give your answer as a number; write no unit.

The cases that follow already have their chromatographic logP on record.
1) Cc1nn2c(C(C)C)c(C(=O)N[C@H]3CCCc4ccccc43)cnc2c1-c1cnn(CC2CC2)c1: 4.13
2) COc1cc(F)cc(-c2c(C)nn3c(C(C)C)c(C(=O)N[C@H]4CCc5ccccc54)cnc23)c1: 4.8
3) Cc1nn2c(C(C)C)c(C(=O)N[C@H]3CCc4ccccc43)cnc2c1-c1c(F)cccc1Cl: 4.71

// recorded chromatographic logP for "CC(C)c1c(C(=O)N[C@H]2CCc3ccccc32)cnc2c(-c3cc(Cl)cc(C(F)(F)F)c3)c(C(F)(F)F)nn12" : 6.22

* * *

# testedTarget: C. elegans Slo-1a (Caenorhabditis elegans, UniProt Q95V25)
# Sequence (Q95V25 whole entry): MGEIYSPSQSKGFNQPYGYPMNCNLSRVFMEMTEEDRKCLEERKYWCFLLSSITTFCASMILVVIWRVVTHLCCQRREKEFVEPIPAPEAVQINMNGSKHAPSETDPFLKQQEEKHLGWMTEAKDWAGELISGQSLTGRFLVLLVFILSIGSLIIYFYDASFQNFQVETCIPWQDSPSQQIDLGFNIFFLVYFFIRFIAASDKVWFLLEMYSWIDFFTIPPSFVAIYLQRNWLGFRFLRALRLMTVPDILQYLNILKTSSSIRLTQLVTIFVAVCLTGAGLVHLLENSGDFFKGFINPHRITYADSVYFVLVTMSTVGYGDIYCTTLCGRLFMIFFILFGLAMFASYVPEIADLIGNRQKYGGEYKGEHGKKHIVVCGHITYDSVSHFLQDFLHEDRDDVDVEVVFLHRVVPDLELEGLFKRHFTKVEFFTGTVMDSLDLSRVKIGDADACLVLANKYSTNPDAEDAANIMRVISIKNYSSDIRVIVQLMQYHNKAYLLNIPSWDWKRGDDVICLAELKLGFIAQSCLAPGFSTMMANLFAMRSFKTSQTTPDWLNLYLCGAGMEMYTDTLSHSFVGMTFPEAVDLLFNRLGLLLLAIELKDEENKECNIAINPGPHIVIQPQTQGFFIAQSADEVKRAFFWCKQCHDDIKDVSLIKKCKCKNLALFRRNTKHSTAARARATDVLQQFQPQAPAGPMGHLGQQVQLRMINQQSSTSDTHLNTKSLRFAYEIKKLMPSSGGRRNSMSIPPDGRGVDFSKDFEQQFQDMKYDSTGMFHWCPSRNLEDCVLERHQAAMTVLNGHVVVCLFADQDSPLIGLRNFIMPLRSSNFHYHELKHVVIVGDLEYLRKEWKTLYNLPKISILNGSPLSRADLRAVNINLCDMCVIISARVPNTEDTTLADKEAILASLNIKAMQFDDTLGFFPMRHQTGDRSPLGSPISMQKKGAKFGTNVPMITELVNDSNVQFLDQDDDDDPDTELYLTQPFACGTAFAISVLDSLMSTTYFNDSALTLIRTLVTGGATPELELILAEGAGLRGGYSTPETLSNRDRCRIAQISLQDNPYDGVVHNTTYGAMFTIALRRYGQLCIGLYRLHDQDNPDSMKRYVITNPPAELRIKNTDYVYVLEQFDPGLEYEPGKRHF
# runDescription: In vitro assay 1: C. elegans Slo-1a, action at a recombinant C. elegans CHO cell line (membrane potential measurement)
# assaySetup: CHO cells expressing C. elegans Slo-1a; voltage sensitive dye, FLIPR Tetra; negative decadic logarithm of EC50
pE50 values by entry
Give your answer as a number; write no unit.

The cases that follow already have their pE50 on record.
1. CC(C)c1c(C(=O)N[C@H]2CCOc3ccccc32)cnc2c(-c3c(Cl)cccc3Cl)c(C(F)F)nn12 [Example 503]: 7.9
2. CC(C)c1c(C(=O)N[C@H]2CCOc3ccccc32)cnc2c(-c3ccc(F)c(F)c3)c(C(F)F)nn12 [Example 278]: 7.5
3. Cc1nn2c(C3CC3)c(C(=O)N[C@H]3CCc4ccccc43)cnc2c1-c1cnn(CC(F)(F)F)c1 [Example 421]: 8.1

// recorded pE50 for Cc1nn2c(C(C)C)c(C(=O)N[C@H]3CCOc4ccc(Cl)cc43)cnc2c1-c1c(F)cccc1F [Example 97] : 7.2

* * *

# testedTarget: C. elegans Slo-1a (Caenorhabditis elegans, UniProt Q95V25)
# runDescription: In vitro assay 1: C. elegans Slo-1a, action at a recombinant C. elegans CHO cell line (membrane potential measurement)
The label is Met for EC50 below 20 nM and Not met for EC50 equal to or exceeding 20 nM.

Solved entries:
1. CC(C)c1c(C(=O)N[C@H]2CCOc3ccccc32)cnc2c(-c3c(F)cc(F)cc3F)c(C(F)(F)F)nn12 [Example 140]: Not met
2. Cc1nn2c(C(C)C)c(C(=O)N[C@H]3CCOc4ccccc43)cnc2c1-c1ccc(F)cc1Cl [Example 218]: Met
3. CCS(=O)(=O)c1nn2c(C(C)C)c(C(=O)N[C@H]3CCOc4ccccc43)cnc2c1-c1cc(Cl)cc(Cl)c1 [Example 212]: Not met
4. CSc1nn2c(C(C)C)c(C(=O)N[C@H]3CCc4ccccc43)cnc2c1-c1cc(Cl)cc(Cl)c1 [Example 203]: Not met
5. Cc1nn2c(C(C)C)c(C(=O)N[C@H]3CCOc4ccccc43)cnc2c1-c1ccccc1Cl [Example 107]: Met
6. Cc1nn2c(C3CC3)c(C(=O)N[C@H]3CCc4ccccc43)cnc2c1-c1cccc(OC(F)F)c1 [Example 417]: Met
7. Cc1nn2c(C(C)C)c(C(=O)N[C@H]3CCOc4ccccc43)cnc2c1-c1cnc(F)c(F)c1 [Example 221]: Met
8. Cc1nn2c(C(C)C)c(C(=O)N[C@H]3CCOc4ccccc43)cnc2c1-c1ccc(Br)cc1 [Example 206]: Met
9. Cc1nn2c(C3CC3)c(C(=O)N[C@H]3CCOc4ccccc43)cnc2c1-c1ccnc(N2CCOCC2)c1F [Example 527]: Not met
10. Cc1nn2c(C(C)C)c(C(=O)N[C@H]3CCc4ccccc43)cnc2c1-c1cccc(S(=O)(=O)C2CC2)c1 [Example 443]: Not met

Data request: Quick check: does Cc1nn2c(C(C)C)c(C(=O)N[C@H]3CCc4ccccc43)cnc2c1-c1c(F)cccc1Cl [Example 132] have EC50 under 20 nM?
Data returned: Met

Data request: Quick check: does Cc1nn2c(C)c(C(=O)N[C@H]3CCc4ccccc43)cnc2c1-c1cccc(Cl)c1 [Example 59] have EC50 under 20 nM?
Data returned: Not met

Data request: Quick check: does Cc1nn2c(C(C)C)c(C(=O)N[C@H]3CCOc4ccccc43)cnc2c1-c1cccc(N2CC(F)C2)c1 [Example 459] have EC50 under 20 nM?
Data returned: Met

Data request: Quick check: does Cc1nn2c(C(C)C)c(C(=O)N[C@H]3CCCc4ccccc43)cnc2c1-c1cc(F)ccc1F [Example 115] have EC50 under 20 nM?
Data returned: Met

Data request: Quick check: does Cc1nn2c(C3CC3)c(C(=O)N[C@H]3CCc4ccccc43)cnc2c1-c1cccc(F)c1 [Example 353] have EC50 under 20 nM?
Data returned: Met

Data request: Quick check: does Cc1nn2c(C(C)C)c(C(=O)N[C@H]3CCc4ccccc43)cnc2c1-c1cccc(C(F)(F)F)n1 [Example 179] have EC50 under 20 nM?
Data returned: Not met

Data request: Quick check: does Cc1nn2c(C(C)C)c(C(=O)N[C@H]3CCc4ccccc43)cnc2c1-c1ccc(Cl)cc1Cl [Example 181] have EC50 under 20 nM?
Data returned: Met

* * *

# testedTarget: C. elegans Slo-1a (Caenorhabditis elegans, UniProt Q95V25)
# runDescription: In vitro assay 1: C. elegans Slo-1a, action at a recombinant C. elegans CHO cell line (membrane potential measurement)
pEC50 values by entry
As a rule, pEC50 stands for the negative log10 of the concentration, concentration in M.

1. Cc1nn2c(C(C)C)c(C(=O)N[C@H]3CCOc4ccccc43)cnc2c1-c1ccccc1C#N: 7.60

// recorded pEC50 for "COCc1cccc(-c2c(C(F)(F)F)nn3c(C(C)C)c(C(=O)N[C@H]4CCOc5ccccc54)cnc23)c1" : 7.10

// recorded pEC50 for "Cc1nn2c(C(C)C)c(C(=O)N[C@H]3CCc4ccccc43)cnc2c1-c1cccc(COC(C)C)c1" : 7.70

// recorded pEC50 for "Cc1c(C(=O)N[C@H]2CCCc3ccccc32)cnc2c(-c3ccccc3Cl)c(Cl)nn12" : 7.20

// recorded pEC50 for "CC(C)c1c(C(=O)N[C@H]2CCc3ccccc32)cnc2c(-c3cc(Cl)cc(Cl)c3)c(C(F)(F)F)nn12" : 7.40

// recorded pEC50 for "Cc1nn2c(C(C)C)c(C(=O)N[C@H]3CCc4ccccc43)cnc2c1-c1cccc(CS(C)(=O)=O)c1" : 6.90

// recorded pEC50 for "Cc1nn2c(C(C)C)c(C(=O)N[C@H]3CCc4ccccc43)cnc2c1-c1ccc2c(c1)OC(F)(F)O2" : 8.00

* * *

# System: Haemonchus contortus
# runDescription: In vitro assay 6: Haemonchus contortus (HAEMCO), larval mortality
# assaySetup: Haemonchus contortus, 120 h, read-out: activity (percentage of larval mortality)
endpoint: mortality at 20 ppm

The cases that follow already have their mortality at 20 ppm on record.
1) Cc1nn2c(N3CCOCC3)c(C(=O)N[C@H]3CCOc4ccccc43)cnc2c1-c1cccc(C(F)(F)F)c1Cl: 90%
2) Cc1nn2c(C(C)C)c(C(=O)N[C@H]3CCOc4ccccc43)cnc2c1-c1cc(Cl)cc(Cl)c1Cl: 90%
3) COc1c(F)ccc(-c2c(C)nn3c(C(C)C)c(C(=O)N[C@H]4CCOc5ccccc54)cnc23)c1F: 90%

Measured mortality at 20 ppm for this entry "COc1c(F)cc(F)c(-c2c(C)nn3c(N4CCOCC4)c(C(=O)N[C@H]4CCOc5ccccc54)cnc23)c1F" on Haemonchus contortus: 100%

Measured mortality at 20 ppm for this entry "Cc1nn2c(C(C)C)c(C(=O)N[C@H]3CCOc4ccccc43)cnc2c1-c1c(F)ccc(Cl)c1F" on Haemonchus contortus: 90%

Measured mortality at 20 ppm for this entry "Cc1nn2c(N3CCOCC3)c(C(=O)N[C@H]3CCOc4ccccc43)cnc2c1-c1cccc(Cl)c1Cl" on Haemonchus contortus: 100%

Measured mortality at 20 ppm for this entry "Cc1nn2c(C(C)C)c(C(=O)N[C@H]3CCOc4ccccc43)cnc2c1-c1cccc2c1CCN2C" on Haemonchus contortus: 80%

Measured mortality at 20 ppm for this entry "CNc1c(C(=O)N[C@H]2CCOc3ccccc32)cnc2c(-c3cccc(Cl)c3Cl)c(C)nn12" on Haemonchus contortus: 90%

Measured mortality at 20 ppm for this entry "Cc1nn2c(C(C)C)c(C(=O)N[C@H]3CCOc4ccccc43)cnc2c1-c1cc(Cl)ccc1F" on Haemonchus contortus: 80%

Measured mortality at 20 ppm for this entry "Cc1nn2c(C(C)C)c(C(=O)N[C@H]3CCOc4ccccc43)cnc2c1-c1cccc(N(C)C)c1F" on Haemonchus contortus: 80%

Measured mortality at 20 ppm for this entry "Cc1nn2c(C3CC3)c(C(=O)N[C@H]3CCc4ccccc43)cnc2c1-c1c(F)ccc(Cl)c1F" on Haemonchus contortus: 80%

Measured mortality at 20 ppm for this entry "Cc1nn2c(N(C)C)c(C(=O)N[C@H]3CCOc4ccccc43)cnc2c1-c1cccc(Cl)c1Cl" on Haemonchus contortus: 100%
